TEST SYSTEM: G/T mismatch-specific thymine DNA glycosylase (Homo sapiens);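 note: human TDG cleavage of quenched duplex DNA oligonucleotides coupled to APE1, strand release read as fluorescence at 594 nm, inhibition of TDG activity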
EXPERIMENTAL CONDITIONS: Compound Concentration 10.0 uM, Hit No
Description: Inhibition of TDG by quantifying inhibition of TDG-mediated cleavage and dissociation of quenched duplex DNA oligonucleotides, measured as fluorescence at 594 nm. To generate a functional strand incision and increase turn-over this assay is coupled to APE1.
RECORDED ENDPOINT: inhibition (%)

>>> reported("CCOC(=O)c1ccc(N2C(=O)C(O)=C(C(=O)c3ccc(OC)cc3)C2c2ccc(F)cc2)cc1 (stereo not drawn)")
46.7
>>> reported("CC(C)(C#Cc1ccc(NC(=O)COc2ccccc2C(=O)c2ccccc2)c(Cl)c1)C(=O)O")
61.6
>>> reported("Cn1cc(Cl)c2c(Oc3c(F)cc(Nc4cc(Cl)nc(N)n4)cc3F)ccnc21")
53.4
>>> reported("O=C(N1CCS(=O)(=O)CC1)N1C[C@H](c2ccc(OC(F)(F)F)cc2)C[C@H](c2nc(C3CC3)no2)C1")
56.4
>>> reported("CC(C)COc1ccc(CNC(=O)N(Cc2ccc(F)cc2)C2CCN(C)CC2)cc1")
-0.163
>>> reported("Cn1nc(C(F)(F)F)cc1-c1cnc(N2CCc3cc(S(=O)(=O)Nc4c(F)cc(Cl)cc4F)cc(N4CCCC4=O)c32)nc1")
53.9
>>> reported("CCCn1c(=O)c2[nH]c(-c3ccc(OCC(=O)Nc4ccc(C#N)cc4)cc3)nc2n(CCC)c1=O")
1.64
>>> reported("CCNC(=O)NS(=O)(=O)c1sc(CC(C)C)cc1-c1ccc(Cn2c(-c3ccccc3)nc(OC)c2C=O)cc1")
64.7
